In this section, each of the binders is paired with its reported Kd.
target: cynomolgus BCMA-Fc (cynomolgus); test: SPR, 25C
Sequence (chain, as listed by the source): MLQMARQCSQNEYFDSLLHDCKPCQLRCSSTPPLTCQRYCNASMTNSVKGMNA
Kindly answer with a numeric value in nM, unit omitted.

// below: answered binders
P1AG5046 (54_VH1b/VL1a_T699S) (antibody, V domains shown) VH: EVQLVESGGGLVKPGGSLRLSCAASGFTFSNAWMDWVRQAPGKGLEWIAQITAKSNNYATYYAAPVKGRFTISRDDSKNTLYLQMNSLKTEDTAVYYCTDDGYHWGQGTLVTVSS VL: AIQMTQSPSSLSASVGDRVTITCRASEDIRNGLAWYQQKPGKAPKLLIYNANSLHSGVPSRFSGSGSGTDFTLTISSLQPEDFATYYCEDTSKYPYTFGQGTKLEIK    3.9
P1AG5034 (E04_VH1b/VL1e) (antibody, V domains shown) VH: QVQLVQSGAEVKKPGASVKVSCKASGYTFTNYWMHWVRQAPGQGLEWMGIIHPNSGSTNYNEKFQGRVTMTVDKSTSTVYMELSSLRSEDTAVYYCARGIYDYPFAYWGQGTLVTVSS VL: DIQMTQSPSSLSASVGDRVTITCRASESVSIHGTHLMHWYQQKPGKAPKLLIYAASSLQSGVPSRFSGSGSGTDFTLTISSLQPEDFATYYCQQSIEDPYTFGGGTKVEIK    32

Please find the next binder below.
// query Kd value for entry P1AG5043 (E04_VH1a/VL1d) (antibody, V domains shown) VH: QVQLVQSGAEVKKPGASVKVSCKASGYTFTNYWMHWVRQAPGQGLEWMGIIHPNSGSTNYNEKFQGRVTMTRDTSTSTVYMELSSLRSEDTAVYYCARGIYDYPFAYWGQGTLVTVSS VL: DIQMTQSPSSLSASVGDRVTITCRASESVSIHGTHLMHWYQQKPGKAPKLLIYAASNLQSGVPSRFSGSGSETDFTLTISSLQPEDFATYYCQQSIEDPYTFGGGTKVEIK
14
